Target: Estrogen receptor (Bos taurus) (UniProt Q9XSB5+P49884)
Conditions: Uterus; Cytosol
Description: Relative binding affinity against estrogen receptor in calf uterus cytosol using [3H]E2 as radioligand, incubated at 5 hours at 25 degree Centigrade.
MEASURED_QUANTITY: RBA2

>>> value_reported("Cc1ccc(/C(=C(\\C#N)c2ccccc2)c2ccc(O)cc2)cc1")
2.5
>>> value_reported("Cc1ccc(/C(=C(\\C#N)c2ccc(O)cc2)c2ccc(O)cc2)cc1")
9.1
>>> value_reported("CC(C)Oc1ccc(/C(=C(/C#N)c2ccccc2)c2ccc(O)cc2)cc1")
6.4
>>> value_reported("CCN(CC)CCOc1ccc(/C(=C(\\C#N)c2ccccc2)c2ccc(O)cc2)cc1")
3.4
>>> value_reported("Cc1ccc(/C(=C(/C#N)c2ccccc2)c2ccc(O)cc2)cc1")
28
